System: Trypanosoma cruzi
Test: Antitrypanosomal activity against Trypanosoma cruzi infected in albino CF1 mouse assessed as reduction in number of parasites in blood at 13 mg/kg/day, intramuscular treatment started on day 10 of infection up to day 14
Assay type: functional
Conditions: im
experimental-readout: inhibition in vivo at 13 mg/kg/day
Reply with the number, then its unit.

# compound, target, value-reported
measured = [
    ("CCCNCCCCCNc1cc(OC)cc2cccnc12.O=P(O)(O)O", "Trypanosoma cruzi", "54%"),
]

From here, focus on the item given below.
Specify the recorded inhibition in vivo at 13 mg/kg/day for COc1cc(NC(C)CCN)c2nc(C)ccc2c1.Cl.O (stereo unspecified) , system: Trypanosoma cruzi.
86%

====

Test system: Trypanosoma cruzi
Assay: Antitrypanosomal activity against Trypanosoma cruzi infected in albino CF1 mouse assessed as reduction in number of parasites in blood at 52 mg/kg/day, intramuscular treatment started on day 10 of infection up to day 14
Format: functional
Conditions: im
experimental-readout: inhibition in vivo at 52 mg/kg/day (%)
Give the value in % but do not write % after it.

# compound, value-reported
data = [
    ("COc1cc(NC(C)CCN)c2ncccc2c1/N=N/c1ccc(C(=O)O)cc1 (centres undefined)", 99),
    ("CCCNCCCCCNc1cc(OC)cc2cccnc12.O=P(O)(O)O", 93),
    ("COc1cc(NC(C)CCN)c2ncccc2c1.Cl (centres undefined)", 97),
]

From here, focus on the item given below.
Give the measured inhibition in vivo at 52 mg/kg/day for CC1CS(=O)(=O)CCN1/N=C/c1ccc([N+](=O)[O-])o1 (centres undefined) [NIFURTIMOX]
92

====

Readings of inhibition in vivo at 13 mg/kg/day for the listed compounds
Test system: Trypanosoma cruzi
Experiment: Antitrypanosomal activity against Trypanosoma cruzi infected in albino CF1 mouse assessed as reduction in number of parasites in blood at 13 mg/kg/day, intramuscular treatment started on day 10 of infection up to day 14
Type: functional
Conditions: im
Give the value in % but do not write % after it.

Record excerpt, results attached:
# compound, inhibition in vivo at 13 mg/kg/day (%)
rows = [
    ("COc1cc(NC(C)CCN)c2ncccc2c1.Cl (centres undefined)", 80),
    ("COc1cc(NC(C)CCN)c2ncccc2c1/N=N/c1ccc(C(=O)O)cc1 (centres undefined)", 98),
]

Give the measured inhibition in vivo at 13 mg/kg/day for COc1cc(NC(C)CCN)c2ncc(C)cc2c1.O=P(O)(O)O (centres undefined)
98

Give the measured inhibition in vivo at 13 mg/kg/day for CC1CS(=O)(=O)CCN1/N=C/c1ccc([N+](=O)[O-])o1 (centres undefined)
57
